assayed system: VMAT2 (Homo sapiens)
Sequence (Q05940 whole entry): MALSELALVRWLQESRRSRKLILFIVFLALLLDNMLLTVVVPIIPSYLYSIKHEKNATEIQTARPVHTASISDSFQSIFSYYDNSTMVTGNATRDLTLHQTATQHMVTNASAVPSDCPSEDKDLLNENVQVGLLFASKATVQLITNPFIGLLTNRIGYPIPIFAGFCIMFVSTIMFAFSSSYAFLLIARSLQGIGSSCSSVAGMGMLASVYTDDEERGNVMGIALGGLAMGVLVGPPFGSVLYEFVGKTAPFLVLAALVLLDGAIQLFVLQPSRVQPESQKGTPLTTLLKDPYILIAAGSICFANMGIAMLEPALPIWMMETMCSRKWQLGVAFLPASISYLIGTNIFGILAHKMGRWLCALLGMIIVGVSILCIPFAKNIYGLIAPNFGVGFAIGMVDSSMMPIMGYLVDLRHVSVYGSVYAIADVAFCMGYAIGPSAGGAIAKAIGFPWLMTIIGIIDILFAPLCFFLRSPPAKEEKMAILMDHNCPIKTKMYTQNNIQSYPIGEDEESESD
assay overview: hVMAT2 [3H]DTBZ ([3H]DHTB) binding assay
Parameters: expressed in transfected cells; host or cells: HEK (human embryonic kidney) cells
Protocol: Membrane preparation for binding, uptake and release assays using HEK-hVMAT2 cells: Human embryonic kidney cells expressing the human vesicular monoamine transporter 2 (HEK-hVMAT2) were used. HEK-hVMAT2 cells were grown until confluent. […] Binding was terminated by filtration over Whatman GF/C filters using a Tomtec 96-well cell harvester. […] Scintillation fluid was added to each square and radioactivity remaining on the filters was determined using a Wallac μ- or beta-plate reader. […]
pKi: −log10 of the molar value.
measure: pKi

// below: answered compounds
INSERT INTO results (compound, result) VALUES
  ('CCOC(=O)[C@H]1CN(CCCn2c(=O)[nH]c3ccccc3c2=O)CC[C@H]1c1ccc(F)cc1 (racemic)', '< 5.00'),
  ('CCOC(=O)[C@H]1CN(CCn2c(=O)[nH]c3ccccc3c2=O)CC[C@H]1c1ccc(C)s1', '< 5.10'),
  ('CCOC(=O)[C@H]1CN(CCCCn2c(=O)[nH]c3ccccc3c2=O)CC[C@H]1c1ccc(F)cc1 (racemic)', '< 5.00');

Now for another entry.
Look at this compound and give its reported pKi. CCOC(=O)[C@@H]1CN(CCn2c(=O)[nH]c3ccccc3c2=O)CC[C@@H]1c1ccccc1 (racemic)
5.93

---

Counter-ions that a name gives are not always drawn.
measure: melting point

Some solved entries appear below for comparison.
INSERT INTO assay_data (compound, result) VALUES
  ('CCOC(=O)[C@H]1CN(CCn2c(=O)[nH]c3ccccc3c2=O)CC[C@H]1c1cccc(OC(F)(F)F)c1 (racemic) (as salt: HCl) [Compound 5jj]', '155 to 156 °C'),
  ('CCOC(=O)[C@@H]1CN(CCn2c(=O)[nH]c3sccc3c2=O)CC[C@@H]1c1cccc(C(F)(F)F)c1 (relative stereo) [Compound 7d]', '153.5 to 156.5 °C'),
  ('CCOC(=O)C1=C(c2ccc(F)cc2)CCN(CCn2c(=O)[nH]c3ccccc3c2=O)C1', '150 to 152 °C');

For each listed entry, give its melting point.
1. O=c1[nH]c2ccccc2c(=O)n1CCN1CC=C(c2ccc(F)cc2)CC1
2. CCCn1c(=O)n(CCN2CC[C@H](c3ccc(F)cc3)[C@H](C(=O)OCC)C2)c(=O)c2ccccc21 (racemic) [Compound 6b]
3. CCOC(=O)[C@H]1CN(CCn2c(=O)[nH]c3ccccc3c2=O)CC[C@H]1c1ccc2c(c1)OCCO2 (racemic) (as salt: HCl) [Compound 5gg]
4. CCOC(=O)[C@@H]1CN(CCn2c(=O)[nH]c3ccccc3c2=O)CC[C@@H]1c1ccc([N+](=O)[O-])cc1 (racemic) [Compound 5tt]
5. CCOC(=O)[C@@H]1CN(CCn2c(=O)[nH]c3sccc3c2=O)CC[C@@H]1c1ccc(C(F)(F)F)cc1 (racemic) [Compound 7c]

["208 °C", "96.8 to 97.7 °C", "178 to 179 °C", "216 to 217.4 °C", "190.3 to 191.5 °C"]

I need melting point for every entry listed below, if you could help.
1. CCOC(=O)[C@@H]1CN(CCn2c(=O)[nH]c3ccccc3c2=O)CC[C@@H]1c1ccc(Cl)cc1 (racemic) [Compound 5oo]
2. CCOC(=O)[C@H]1CN(CCn2c(=O)[nH]c3ccccc3c2=O)CC[C@H]1c1ccc(O)c(O)c1 (racemic) (as salt: HCl) [Compound 5ff]
3. CCOC(=O)[C@@H]1CN(CCn2c(=O)[nH]c3sccc3c2=O)CC[C@@H]1c1cccc(F)c1 (racemic) [Compound 7b]
4. CCOC(=O)[C@@H]1CN(CCn2c(=O)c3ccccc3n(C)c2=O)CC[C@@H]1c1ccc(F)cc1 (racemic) [Compound 6a]

["194.8 to 196.1 °C", "167 to 168.5 °C", "153.3 to 155.1 °C", "131.1 to 133 °C"]

Kindly give each listed record's melting point.
1. CCOC(=O)[C@H]1CN(CCn2c(=O)[nH]c3ccccc3c2=O)CC[C@H]1c1ccccc1C (racemic) (as salt: HCl) [Compound 5z]
2. CCOC(=O)[C@H]1CN(CCCCn2c(=O)[nH]c3ccccc3c2=O)CC[C@H]1c1ccc(F)cc1 (racemic) [n=3]
3. CCOC(=O)[C@H]1CN(CCn2c(=O)[nH]c3ccccc3c2=O)CC[C@H]1c1ccc(OC)c(OC)c1 (racemic) (as salt: HCl) [Compound 5dd]
4. CC(C)OC(=O)[C@H]1CN(CCn2c(=O)[nH]c3ccccc3c2=O)CC[C@H]1c1ccc(F)cc1 (racemic) (as salt: HCl) [Compound 10b]
5. CCOC(=O)[C@@H]1CN(CCn2c(=O)c3ccccc3n(Cc3ccccc3)c2=O)CC[C@@H]1c1ccc(F)cc1 (racemic) [Compound 6c]

174 to 175 °C
148.5 to 149.7 °C
154.5 to 155.5 °C
157.5 to 159 °C
134.9 to 136.4 °C

Provide the reported melting point of each entry below, same order.
1. CCOC(=O)[C@H]1CN(CCN2C(=O)c3ccccc3C2=O)CC[C@H]1c1ccc(F)cc1 (racemic) (as salt: HCl) [Example 144]
2. CCOC(=O)[C@H]1CN(CCn2c(=O)[nH]c3ccccc3c2=O)CC[C@H]1c1ccc(C(C)C)cc1 (racemic) (as salt: HCl) [Compound 5u]
3. CCOC(=O)[C@@H]1CN(CCn2c(=O)[nH]c3sccc3c2=O)CC[C@@H]1c1ccc(F)cc1 (racemic) [Compound 7a]
4. CCOC(=O)[C@@H]1CN(CCn2c(=O)[nH]c3ccccc3c2=O)CC[C@@H]1c1cccc(F)c1 (racemic) [Compound 5e]
5. CCOC(=O)[C@@H]1CN(CCn2c(=O)[nH]c3ccccc3c2=O)CC[C@@H]1c1ccc(F)c(F)c1 (racemic) [Compound 5ss]
6. CCOC(=O)[C@H]1CN(CCn2c(=O)[nH]c3ccccc3c2=O)CC[C@H]1c1cccc(N(C)C)c1 (racemic) (as salt: HCl) [Compound 5aa]
7. CCOC(=O)[C@H]1CN(CCn2c(=O)[nH]c3ccccc3c2=O)CC[C@H]1c1ccccc1N(C)C (racemic) (as salt: HCl) [Compound 5bb]

1. 104.5 to 105.5 °C
2. 153 to 154 °C
3. 198.8 to 201.4 °C
4. 170.6 to 171.4 °C
5. 196.6 to 198.4 °C
6. 179 to 180 °C
7. 208 to 209 °C

Attribution: patent US9546151B2
